For each entry below, report its LC50 value.
- System: MCF7
- ASSAY: Cytotoxicity against human MCF7 cells
- Type: functional
Express the result in µM but write the number alone.

So what's the measured LC50 for this one? CC(=O)O[C@@H]1C[C@H]2[C@]3(C)CC[C@H]4C(C)(C)CCC[C@]4(C)[C@H]3C[C@H](O)[C@]2(C)[C@@H](C=O)[C@@H]1C(C)=O [SCALARHERBACIN A]
70.8

So what's the measured LC50 for this one? CC(=O)C1=CC[C@H]2[C@]3(C)CC[C@H]4C(C)(C)CCC[C@]4(C(=O)O)[C@H]3CC(=O)[C@]2(C)[C@H]1C=O
51.3

So what's the measured LC50 for this one? CC(=O)O[C@H]1C[C@H]2[C@@](C)(CC[C@H]3C(C)(C)CCC[C@@]32CO)[C@@H]2CC=C(C(C)=O)[C@H](C=O)[C@@]12C
25.7
